test-target: IDH1 mutant (R132H) (Homo sapiens, UniProt O75874, R132H)
Construct: purchased BPS Bioscience 71099-2
Sequence (O75874 whole entry R132H): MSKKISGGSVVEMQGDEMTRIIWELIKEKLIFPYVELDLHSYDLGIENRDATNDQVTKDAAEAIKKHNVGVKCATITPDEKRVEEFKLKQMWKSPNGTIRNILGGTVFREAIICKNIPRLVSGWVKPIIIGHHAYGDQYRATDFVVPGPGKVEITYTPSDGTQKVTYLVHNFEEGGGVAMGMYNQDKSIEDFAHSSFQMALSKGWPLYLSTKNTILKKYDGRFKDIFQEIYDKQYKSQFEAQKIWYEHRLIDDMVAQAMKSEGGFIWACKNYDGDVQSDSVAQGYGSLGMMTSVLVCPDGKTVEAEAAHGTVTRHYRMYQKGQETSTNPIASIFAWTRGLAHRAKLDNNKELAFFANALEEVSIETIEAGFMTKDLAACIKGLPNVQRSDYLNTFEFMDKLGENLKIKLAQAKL
method: Mutant IDH1-R132H Fluorescence Assay (Resazurin based)
Type: biochemical
condition-summary: 10 nM IDH1 R132H, 4 mM α-ketoglutarate, NADPH, 1.5 h at room temperature
result-type: IC50 (nM)
Give bare numbers, in nM.

[
  {
    "input-smiles": "CC[C@H]1COC(=O)N1c1nc(C)nc(N[C@@H](C)c2ccc3c(-c4ccccc4)c[nH]c3c2)n1",
    "test-target": "IDH1 mutant (R132H) (Homo sapiens, UniProt O75874, R132H)",
    "units-symbol": "nM",
    "IC50": 2240
  },
  {
    "input-smiles": "CC(C)[C@H]1COC(=O)N1c1ncnc(N[C@@H](C)c2ccc(-c3ccc(C(F)(F)F)cc3)cn2)n1",
    "test-target": "IDH1 mutant (R132H) (Homo sapiens, UniProt O75874, R132H)",
    "units-symbol": "nM",
    "IC50": 3300
  }
]

// moving on: another record for IC50
Reported IC50 for CC[C@H]1COC(=O)N1c1nc(C)nc(N[C@@H](C)c2ccc(Oc3ccccc3)cn2)n1 : what is it?
832

----------
test-target: IDH1 mutant (R132H) (Homo sapiens, UniProt O75874, R132H)
Construct: purchased BPS Bioscience 71099-2
method: Mutant IDH1-R132H Fluorescence Assay (Resazurin based)
Assay type: biochemical
condition-summary: 10 nM IDH1 R132H, 4 mM α-ketoglutarate, NADPH, 1.5 h at room temperature
Would you mind telling me the reported IC50 of each entry?
Answers are plain numbers, in nM.

Observe how each entry below is paired with its result.
[
  {
    "compound": "CC[C@H]1COC(=O)N1c1nc(C)nc(NC(C)(C)c2ccc(Oc3ccccc3)cc2)n1 [Compound 1.111]",
    "units-symbol": "nM",
    "IC50": 2510
  },
  {
    "compound": "CC(C)[C@H]1COC(=O)N1c1ncnc(N[C@@H](C)c2ccc(-c3ccnc(C(F)(F)F)c3)cn2)n1 [Compound 1.11]",
    "units-symbol": "nM",
    "IC50": 11400
  },
  {
    "compound": "CC[C@H]1COC(=O)N1c1nc(C)nc(N[C@@H](C)c2cn(-c3ccc(Cl)cc3)cn2)n1 [Compound 1.50]",
    "units-symbol": "nM",
    "IC50": 456
  },
  {
    "compound": "CC[C@H]1COC(=O)N1c1nc(C)nc(N[C@H](C)c2cc3cc(Br)ccc3[nH]c2=O)n1 [Compound 1.67]",
    "units-symbol": "nM",
    "IC50": 12300
  },
  {
    "compound": "CC[C@H]1COC(=O)N1c1nc(N[C@@H](C)c2ccc(Oc3ccccc3)cc2)nc(N(C)C)n1 [Compound 1.63]",
    "units-symbol": "nM",
    "IC50": 2400
  }
]

Below is a list of compounds. For each, state its recorded IC50.
1. CC[C@H]1COC(=O)N1c1nc(C)nc(N[C@@H](C)c2ccc3ccn(-c4ccccc4)c3c2)n1 [Compound 1.85]
2. CC(C)[C@H]1COC(=O)N1c1ncnc(N[C@@H](C)c2ccc(Cl)c(Cl)c2)n1 [Compound 1.7]
3. CC[C@H]1COC(=O)N1c1nc(C)nc(N[C@@H](C)c2ccc(Oc3cccnc3C(F)(F)F)cc2)n1 [Compound 1.81]
4. CC[C@H]1COC(=O)N1c1nc(C)nc(N[C@@H](C)c2cn(-c3ccc(C(F)(F)F)cc3)cn2)n1 [Compound 1.40]
5. Cc1cc([C@H](C)Nc2ncnc(N3C(=O)OC[C@@H]3C(C)C)n2)ncc1-c1ccnc(C(F)(F)F)c1 [Compound 1.21]
6. CC(C)[C@H]1COC(=O)N1c1ncnc(N[C@@H](C)c2ccc(Oc3ccccc3)cn2)n1 [Compound 1.19]
7. CC[C@H]1COC(=O)N1c1nc(N[C@@H](C)c2cn(-c3ccc(C(F)(F)F)cc3)cn2)nc(OC)n1 [Compound 1.41]
8. CC[C@H]1COC(=O)N1c1nc(C)nc(N[C@H](C)c2cc3cc(Cl)c(OC(C)C)cc3[nH]c2=O)n1 [Compound 1.105]

[914, 2870, 586, 298, 1400, 1660, 707, 660]
